assayed-target: Lanosterol synthase (Rattus norvegicus)
protocol-text: In vitro percent inhibitory activity of the compound against rat microsomal OSC enzyme at 1 uM concentration
result-type: inhibition (%)

| smiles-text | readout-units | value |
| --- | --- | --- |
| O=C(C1CCN(c2ccncn2)CC1)N1CCN(S(=O)(=O)c2ccc(Br)cc2)CC1 | % | 100 |
| O=C(C1CCN(C2=NCCS2)CC1)N1CCN(S(=O)(=O)c2ccc(Br)cc2)CC1 | % | 100 |
| Cc1nccc(N2CCC(C(=O)N3CCN(S(=O)(=O)c4ccc(Br)cc4)CC3)CC2)n1 | % | 76 |
| Cc1nsc(N2CCC(C(=O)N3CCN(S(=O)(=O)c4ccc(Br)cc4)CC3)CC2)n1 | % | 3 |

###

protocol-text: Effective dose (80%) required to inhibit cholesterol biosynthesis in rat after oral administration
Type: functional

| smiles-text | readout-qualifier | ED80 [mg/kg] |
| --- | --- | --- |
| O=C(c1ccc(C(F)(F)F)cc1)N1CCC(=Cc2ccc(C3=NCCO3)cc2)CC1 | = | 1 |
| O=C(C1CCN(c2ccncn2)CC1)N1CCN(S(=O)(=O)c2ccc(Br)cc2)CC1 | = | 1.4 |
| O=C(C1CCN(c2ccncc2)CC1)N1CCN(S(=O)(=O)c2ccc(Br)cc2)CC1 | > | 2 |
| Cc1nccc(N2CCC(C(=O)N3CCN(S(=O)(=O)c4ccc(Br)cc4)CC3)CC2)n1 | = | 1.2 |
| CCC(C)(C)C(=O)O[C@H]1C[C@@H](C)C=C2C=C[C@H](C)[C@H](CC[C@@H]3C[C@@H](O)CC(=O)O3)[C@H]21 | = | 1.2 |
